FYI, the data here is from patent US8633183B2.

# IC50 measurements, system: PI3Kalpha (Homo sapiens (Human), UniProt P42336)
# Sequence (P42336 whole entry, looked up): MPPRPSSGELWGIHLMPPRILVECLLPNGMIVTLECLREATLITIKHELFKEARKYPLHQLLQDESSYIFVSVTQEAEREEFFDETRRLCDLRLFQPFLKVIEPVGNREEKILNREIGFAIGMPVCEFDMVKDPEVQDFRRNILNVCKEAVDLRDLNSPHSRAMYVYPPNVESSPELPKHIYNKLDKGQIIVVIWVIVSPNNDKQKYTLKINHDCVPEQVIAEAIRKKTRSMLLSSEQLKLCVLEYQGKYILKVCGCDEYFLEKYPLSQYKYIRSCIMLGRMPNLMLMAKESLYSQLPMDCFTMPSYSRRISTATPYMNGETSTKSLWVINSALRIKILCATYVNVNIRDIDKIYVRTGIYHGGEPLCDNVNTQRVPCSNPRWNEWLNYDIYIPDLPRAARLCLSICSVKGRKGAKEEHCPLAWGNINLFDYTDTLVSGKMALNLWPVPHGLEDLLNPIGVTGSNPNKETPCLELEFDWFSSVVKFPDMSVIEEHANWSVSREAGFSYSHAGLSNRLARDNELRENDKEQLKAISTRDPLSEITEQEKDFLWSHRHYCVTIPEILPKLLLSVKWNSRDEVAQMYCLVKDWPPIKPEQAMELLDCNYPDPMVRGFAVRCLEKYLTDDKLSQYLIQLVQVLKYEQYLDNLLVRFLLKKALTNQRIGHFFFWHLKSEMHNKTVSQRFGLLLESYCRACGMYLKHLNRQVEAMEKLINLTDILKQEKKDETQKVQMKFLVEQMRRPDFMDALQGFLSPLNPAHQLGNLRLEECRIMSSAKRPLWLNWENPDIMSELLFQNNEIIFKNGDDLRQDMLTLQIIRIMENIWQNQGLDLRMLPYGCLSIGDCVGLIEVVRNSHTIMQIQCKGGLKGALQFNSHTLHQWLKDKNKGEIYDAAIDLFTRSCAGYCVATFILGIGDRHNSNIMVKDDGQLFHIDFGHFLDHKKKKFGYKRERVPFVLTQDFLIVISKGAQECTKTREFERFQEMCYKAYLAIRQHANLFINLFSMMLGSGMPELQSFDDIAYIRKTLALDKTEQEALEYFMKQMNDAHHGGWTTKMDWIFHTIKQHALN
Quick note: give the figure in nM, leave out the unit.

Some solved entries appear below for comparison.
>  <COMPOUND>
CCc1ncnc(-c2ccc(C(=O)N3CCN(C4CCS(=O)(=O)C4)CC3)c(OC)c2)c1C#Cc1ccc(N)nc1 (stereo not shown) [Example E-54]

>  <TARGET_ENTITY>
PI3Kalpha (Homo sapiens (Human), UniProt P42336)

>  <REPORTED>
165

$$$$
>  <COMPOUND>
CCc1ncnc(-c2ccc(C(=O)N(C)O)c(Cl)c2)c1C#Cc1ccc(N)nc1 [Example D-153]

>  <TARGET_ENTITY>
PI3Kalpha (Homo sapiens (Human), UniProt P42336)

>  <REPORTED>
67

$$$$
>  <COMPOUND>
CCc1ncnc(-c2ccc(C(=O)N3CCN(C)C[C@@H]3C)c(F)c2)c1C#Cc1ccc(N)nc1 [Example E-348]

>  <TARGET_ENTITY>
PI3Kalpha (Homo sapiens (Human), UniProt P42336)

>  <REPORTED>
144

$$$$

Let us examine a further case.
Observed IC50, PI3Kalpha (Homo sapiens (Human), UniProt P42336), CCc1ncnc(-c2cc(Cl)c(C(=O)N3CCC(C(C)O)CC3)c(Cl)c2)c1C#Cc1ccc(N)nc1 (stereo not shown) [Example E-200] : 58.8
